Quick reference: solubility kinetic at 18 h of the listed items.
- experiment: Solubility of the compound in 1% DMSO/phosphate buffered saline at pH 7.4 incubated for 18 hrs under shaking condition by UPLC/MS analysis
- Assay type: physicochemical
quantity name: solubility kinetic at 18 h

input smiles	quantity name	meas value
CC(C)COC(=O)NC[C@@H]1CC[C@H]2[C@H](COc3ccc(NC(=O)c4ccc(C(F)(F)F)cc4)cc3C(=O)N2C)O1	solubility kinetic at 18 h	7 µM
CN1C(=O)c2cc(NC(=O)c3ccc(C(F)(F)F)cc3)ccc2OC[C@@H]2O[C@H](CNc3nnc(C4CCC4)o3)CC[C@@H]21	solubility kinetic at 18 h	27.5 µM
CN1C(=O)c2cc(NC(=O)c3ccc(C(F)(F)F)cc3)ccc2OC[C@@H]2O[C@H](CNC(=O)[C@@H]3CCCO3)CC[C@@H]21	solubility kinetic at 18 h	90 µM
CN1C(=O)c2cc(NC(=O)c3ccc(C(F)(F)F)cc3)ccc2OC[C@@H]2O[C@H](CNC(=O)CC(C)(C)C)CC[C@@H]21	solubility kinetic at 18 h	6 µM
